assay: Selectivity index, ratio of CC50 for human HBI10A cells to EC50 for Hepatitis C virus; format: toxicity, cell-based; conditions: read-out: Ratio CC50/EC50
reported-property: selectivity ratio
Output: the number by itself.

Solved entries:
compound	selectivity ratio
CC1CCC(Nc2ccc3c(=O)n(-c4cccc(Cl)c4)c(=O)n(C)c3c2)CC1 (configuration not stated)	1.6
O=c1c2ccc(NCCO)c3c2n(c(=O)n1-c1cccc(Cl)c1)CCC3	0.8
Cc1c(NC2CCN(Cc3ccccc3)CC2)ccc2c(=O)n(-c3cccc(Cl)c3)c3nncn3c12	3
O=C(O)c1cc(Cl)cc(-n2c(=O)c3ccc(NC4CCN(Cc5ccccc5)CC4)c4c3n(c2=O)CCC4)c1	10

Consider the record given below.
// selectivity ratio lookup, key: Cn1c(=O)n(-c2cccc(Cl)c2)c(=O)c2ccc(NC3CCN(Cc4ccccc4)CC3)cc21
0.9

* * *

assay: Cytotoxicity against human HBI10A cells; type: cell-based; conditions: HBI10A cells, read-out: CC50
Entries annotated with measured CC50
Output spec: scalar in µM, unitless text.

// solved cases for CC50 follow
compound	endpoint-unit	CC50
CC1CCC(Nc2ccc3c(=O)n(-c4cccc(Cl)c4)c(=O)n(C)c3c2)CC1 (stereo not given)	µM	36
O=C1c2cccc3c(NCCO)ccc(c23)C(=O)N1c1cccc(Br)c1	µM	68
O=c1c2ccc(NC3CCN(Cc4ccccc4)CC3)c3c2n(c(=O)n1-c1cccc(Cl)c1)CCC3	µM	10

Then there is this compound:
Data request, read-out CC50, for O=c1c2ccc(NC3CCN(Cc4ccccc4)CC3)cc2n2ccnc2n1-c1cccc(Cl)c1
3.2

* * *

test system: Hepatitis C virus; test: Antiviral activity against HCV infected in human HBI10A cells; assay type: functional, organism-based, Hepacivirus hominis
reported-property: EC50 (µM)
State just the number; it will be interpreted in µM.

molecule	test-system	EC50 (µM)
O=C1c2cccc3c(NC4CCN(Cc5ccccc5)CC4)ccc(c23)C(=O)N1c1cccc(Br)c1	Hepatitis C virus	2.2
O=C(O)c1cc(Cl)cc(-n2c(=O)c3ccc(NC4CCN(Cc5ccccc5)CC4)c4c3n(c2=O)CCC4)c1	Hepatitis C virus	4.1
O=c1c2ccc(NC3CCN(Cc4ccccc4)CC3)c3c2n(c(=O)n1-c1cccc(Cl)c1)CCC3	Hepatitis C virus	1.7
O=C(O)c1cccc(CN2CCn3c(=O)n(-c4cccc(Cl)c4)c(=O)c4cccc2c43)c1	Hepatitis C virus	27
Cc1c(NC2CCN(Cc3ccccc3)CC2)ccc2c(=O)n(-c3cccc(Cl)c3)c3nncn3c12	Hepatitis C virus	3

Query: EC50; subject: O=c1c2ccc(NCCO)c3c2n(c(=O)n1-c1cccc(Cl)c1)CCC3
15

Recorded EC50 for O=c1c2ccc(N[C@H]3CC[C@@H](C(=O)O)CC3)c3c2n(c(=O)n1-c1cccc(Cl)c1)CCC3 , please?
13

I have this molecule here, Cc1c(NCCO)ccc2c(=O)n(-c3cccc(Cl)c3)c3nncn3c12 , and I need its recorded EC50.
14

Form field: reported EC50 of CC1CCC(Nc2ccc3c(=O)n(-c4cccc(Cl)c4)c(=O)n(C)c3c2)CC1 (stereo not given)
22

# EC50 lookup, item O=C1c2cccc3c(NCCO)ccc(c23)C(=O)N1c1cccc(Cl)c1
8.4

Need EC50, item Cn1c(=O)n(-c2cccc(Cl)c2)c(=O)c2ccc(NCCO)cc21
40
